This collection of values is drawn from the Human Domainome abundance scans (Beltran et al. 2025).

B1: Retinoic acid receptor beta, residues 85 to 161; numbered along this chain, P10826 (parent)
chain: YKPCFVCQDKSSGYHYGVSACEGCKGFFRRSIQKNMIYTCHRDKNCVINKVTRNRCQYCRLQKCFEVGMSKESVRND

Variants of: B1
PROCEDURE TEXT: abundance fitness (aPCA) (normalised: wild type 0, dead -1); higher = more abundant; growth selection in yeast, the domain comes from the species named
RUN PARAMETERS: Homo sapiens
Parameter threshold = -0.5. Response is T when abundance fitness meets or exceeds it, else F.

Some solved cases for reference:
SEQUENCE DATA	LABEL CLASS
YKRCFVCQDKSSGYHYGVSACEGCKGFFRRSIQKNMIYTCHRDKNCVINKVTRNRCQYCRLQKCFEVGMSKESVRND [P3R]	T
YKPCFVCQDKSSGYHYGVSACEGCKGFFRRSGQKNMIYTCHRDKNCVINKVTRNRCQYCRLQKCFEVGMSKESVRND [I32G]	F
YKPCFVCQDKSSGYHYGVSACEPCKGFFRRSIQKNMIYTCHRDKNCVINKVTRNRCQYCRLQKCFEVGMSKESVRND [G23P]	T
YKPCFVCQDKSSGYHYGVSACEGCKGFFRRSIQKNMIYTCHRGKNCVINKVTRNRCQYCRLQKCFEVGMSKESVRND [D43G]	T

Could you verify whether the entry YKPCFVCQDKSSGYHYGVSACEGCKGFKRRSIQKNMIYTCHRDKNCVINKVTRNRCQYCRLQKCFEVGMSKESVRND [F28K] shows abundance fitness of no less than -0.5?
F

Please indicate if the recorded abundance fitness for YKPCFVCEDKSSGYHYGVSACEGCKGFFRRSIQKNMIYTCHRDKNCVINKVTRNRCQYCRLQKCFEVGMSKESVRND [Q8E] meets or exceeds -0.5.
T

Is reported abundance fitness greater than or equal to -0.5 here: YKPCFVCQDKSSGYHYGVSACEGCKGFFRRSIQKNMIYTCHRDKNCVINKVNRNRCQYCRLQKCFEVGMSKESVRND [T52N]
T

Quick check, abundance fitness >= -0.5? YKPCFVCQDKSSGYHYGVSACEGCKGFFRRSIQKNMIYTCHRDKNCVINKVTRNRCQYCILQKCFEVGMSKESVRND [R60I]
F

# check: abundance fitness of YKPCFVCQDKSSGYHYGVSACEGCKGFFRRSIQKNMIYTCHRDKNCVINKRTRNRCQYCRLQKCFEVGMSKESVRND [V51R] is greater than or equal to -0.5
T
